Assay: in vivo
Conditions: outbred, mouse, in vivo; mice, dead animals after 24 h
Procedure: Adverse neurotoxic (muscle relaxant) effects of compounds were studied at doses of 50 to 500 mg/kg when administered intraperitoneally, as well as reference drugs in effect at anticonvulsant doses. Myorelaxation was investigated with the test of a “rotating rod” in mice. To this end, mice were planted on a metal rod with a corrugated rubber coating, which rotated at a speed of 5 revolutions per minute. The number of animals that cnot stay on it for 2 min was determined. […]
compounds and their reported LD50 at 24 h
ENDPOINT LABEL: LD50 at 24 h (mg/kg)

CCC1(C)CC(=O)NC1=O (stereo not shown) [Ethosuximide, ethosuximide, reference compound]
1320
CCCc1nc(OCc2cn(CC(=O)N3CCN(c4nc(CCC)c5c(c4C#N)CC(C)(C)OC5)CC3)nn2)c(C#N)c2c1COC(C)(C)C2
680
CCCc1nc(N2CCN(C(=O)Cn3cc(COc4nc(C)c5c(c4C#N)CC(C)(C)OC5)nn3)CC2)c(C#N)c2c1COC(C)(C)C2
800
Cc1nc(N2CCN(C(=O)Cn3cc(COc4nc(-c5ccco5)c5c(c4C#N)CCCC5)nn3)CC2)c(C#N)c2c1COC(C)(C)C2
930
CCCc1nc(N2CCN(C(=O)Cn3cc(COc4nc(C(C)C)c5c(c4C#N)CCC5)nn3)CC2)c(C#N)c2c1COC(C)(C)C2
650
CCc1nc(OCc2cn(CC(=O)N3CCN(c4nc(CC)c5c(c4C#N)CC(C)(C)OC5)CC3)nn2)c(C#N)c2c1COC(C)(C)C2
790
CCCc1nc(N2CCN(C(=O)Cn3cc(COc4nc(CC)c5c(c4C#N)CC(C)(C)OC5)nn3)CC2)c(C#N)c2c1COC(C)(C)C2
710
CCc1nc(N2CCN(C(=O)Cn3cc(COc4nc(C(C)C)c5c(c4C#N)CCCC5)nn3)CC2)c(C#N)c2c1COC(C)(C)C2
720
Cc1nc(N2CCN(C(=O)Cn3cc(COc4nc(C(C)C)c5c(c4C#N)CCC5)nn3)CC2)c(C#N)c2c1COC(C)(C)C2
890
Cc1nc(OCc2cn(CC(=O)N3CCN(c4nc(C)c5c(c4C#N)CC(C)(C)OC5)CC3)nn2)c(C#N)c2c1COC(C)(C)C2
820

====

tested on: mice; assay: Forced swimming test; settings: 50 mg/kg, 6 min, control 318.0 ± 8.36;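 further: mice made to swim in a water-filled glass vessel under natural light, with durations of active swimming and immobility recorded across the 6 min session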
Total Time of Active Swimming: recorded values
ENDPOINT LABEL: Total Time of Active Swimming (s)

CCc1nc(N2CCN(C(=O)Cn3cc(COc4nc(C(C)C)c5c(c4C#N)CCCC5)nn3)CC2)c(C#N)c2c1COC(C)(C)C2
358.0
CCc1nc(OCc2cn(CC(=O)N3CCN(c4nc(CC)c5c(c4C#N)CC(C)(C)OC5)CC3)nn2)c(C#N)c2c1COC(C)(C)C2
336.0
CCCc1nc(N2CCN(C(=O)Cn3cc(COc4nc(CC)c5c(c4C#N)CC(C)(C)OC5)nn3)CC2)c(C#N)c2c1COC(C)(C)C2
324.0
CCCc1nc(N2CCN(C(=O)Cn3cc(COc4nc(C(C)C)c5c(c4C#N)CCC5)nn3)CC2)c(C#N)c2c1COC(C)(C)C2
350.0
Cc1nc(N2CCN(C(=O)Cn3cc(COc4nc(-c5ccco5)c5c(c4C#N)CCCC5)nn3)CC2)c(C#N)c2c1COC(C)(C)C2
346.0
